# System: HT-29
# measurement-notes: MTT assay, HT-29 colon cancer cell lines
# Format: cell-based
# condition-info: incubated 18 hours, hydrochloride, read-out: inhibitory activity against different cancer cells (IC50)
pIC50: −log10 of the molar value. Where a name gives a salt, the structure may show the parent alone.
measured-endpoint: pIC50

[[record]]
molecule = "CC1=C2CC[C@@](C)(O)[C@@H]2[C@H]2OC(=O)[C@@H](CN(C)C)[C@@H]2CC1 [Compound V, hydrochloride]"
target_entity = "HT-29"
value_measured = 7.72


---

Below: a set of entries, each annotated with reported IC50.
# Tested on: HT-29
# measurement-notes: MTT assay, HT-29 colon cancer cell lines
# Format: cell-based
# condition-info: Homo sapiens, HT-29, 18 h, incubated 18 hours, read-out: inhibitory activity against different cancer cells (IC50)
measured-endpoint: IC50 (nM)

[[record]]
compound = "C=C1C(=O)O[C@H]2[C@H]1CC[C@]1(C)O[C@@]13CC[C@@](C)(O)[C@H]23 [Compound IV, 1,10-Epoxymicheliolide]"
value_measured = 9.8

[[record]]
compound = "C=C1C(=O)O[C@H]2[C@H]1CCC(C)=C1CC[C@@](C)(OC(=O)CC)[C@@H]12 [Compound III, 4-propionylmicheliolide]"
value_measured = 9.8

